Value source: patent US9447085B2

These compounds were tested on UniProtKB Q9Y5Z0; pKi is the recorded read-out.
Sequence (Q9Y5Z0 63-473): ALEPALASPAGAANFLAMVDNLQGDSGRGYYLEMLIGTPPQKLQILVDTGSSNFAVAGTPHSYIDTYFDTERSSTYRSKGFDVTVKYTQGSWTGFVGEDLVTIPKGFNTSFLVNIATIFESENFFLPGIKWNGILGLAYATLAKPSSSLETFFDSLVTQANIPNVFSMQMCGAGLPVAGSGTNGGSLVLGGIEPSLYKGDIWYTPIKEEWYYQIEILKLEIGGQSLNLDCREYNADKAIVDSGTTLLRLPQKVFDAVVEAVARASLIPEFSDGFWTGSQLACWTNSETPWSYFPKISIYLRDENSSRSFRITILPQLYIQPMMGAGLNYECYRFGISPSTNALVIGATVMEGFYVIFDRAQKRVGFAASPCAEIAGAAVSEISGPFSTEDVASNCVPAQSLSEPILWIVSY
pKi: −log10 of the molar value.
observation.type: pKi

# annotated cases, reported pKi shown
>  <compound.structure.string>
CO/N=C(/Nc1ccc(F)c([C@]2(C)CS(=O)(=O)N(C)C(=N)N2)c1)c1ccc(Cl)cn1

>  <study.system>
UniProtKB Q9Y5Z0

>  <pKi>
7.24

$$$$
>  <compound.structure.string>
COc1cnc(C(=S)Nc2cc(F)c(F)c([C@]3(C)CS(=O)(=O)N(C)C(=N)N3)c2)cn1

>  <study.system>
UniProtKB Q9Y5Z0

>  <pKi>
7.74

$$$$

I = COCC(=S)Nc1cc(F)c(F)c([C@]2(C)CS(=O)(=O)N(C)C(=N)N2)c1
II = CN1C(=N)N[C@](C)(c2cc(NC(=S)c3ccc(Cl)cn3)ccc2F)CS1(=O)=O
In: Looking only at measured pKi, which entry is lower, I or II ? Response format: the label of the selected entry.
Out: I
(I: 8.22, II: 9.00)

A = COc1ccc(C(=S)Nc2ccc(F)c([C@]3(C)CS(=O)(=O)N(C)C(=N)N3)c2)nc1
B = CN1C(=N)N[C@](C)(c2cc(NC(=N)c3ccc(Br)cn3)ccc2F)CS1(=O)=O
C = COCC(=S)Nc1ccc(F)c([C@]2(C)CS(=O)(=O)N(C)C(=N)N2)c1
D = CN1C(=N)N[C@](C)(c2cc(NC(=S)C(F)F)cc(F)c2F)CS1(=O)=O
In: Output the entries ranked by pKi from maximum down to minimum. Please list the labels according to the requested order.
Out: C, A, D, B

a = CN1C(=N)N[C@](C)(c2cc(NC(=S)C(F)F)ccc2F)CS1(=O)=O
b = CN1C(=N)N[C@](C)(c2cc(NC(=S)c3ccc(F)cn3)ccc2F)CS1(=O)=O
In: Looking only at measured pKi, which entry is lower, a or b ? Response format: the label of the selected entry.
Out: a
(a: 8.15, b: 8.70)

====

These molecules were tested on soluble human BACE1 catalytic domain (Homo sapiens (Human)); Ki is the recorded read-out.
Sequence (P56817 75-416): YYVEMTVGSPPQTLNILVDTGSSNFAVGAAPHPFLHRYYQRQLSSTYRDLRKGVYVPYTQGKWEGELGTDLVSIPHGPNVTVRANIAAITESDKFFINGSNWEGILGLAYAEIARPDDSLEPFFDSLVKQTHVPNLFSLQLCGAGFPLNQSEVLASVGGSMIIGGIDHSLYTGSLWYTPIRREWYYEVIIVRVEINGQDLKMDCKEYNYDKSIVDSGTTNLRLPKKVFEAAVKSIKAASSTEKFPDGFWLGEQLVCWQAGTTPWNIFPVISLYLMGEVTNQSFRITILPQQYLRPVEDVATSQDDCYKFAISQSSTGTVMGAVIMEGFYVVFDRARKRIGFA
observation.type: Ki (µM)

# annotated cases, reported Ki shown
>  <compound.structure.string>
COCC(=S)Nc1ccc(F)c([C@]2(C)CS(=O)(=O)N(C)C(=N)N2)c1

>  <study.system>
soluble human BACE1 catalytic domain (Homo sapiens (Human))

>  <Ki / µM>
0.152

$$$$
>  <compound.structure.string>
CO/N=C(/Nc1ccc(F)c([C@]2(C)CS(=O)(=O)N(C)C(=N)N2)c1)c1ccc(Cl)cn1

>  <study.system>
soluble human BACE1 catalytic domain (Homo sapiens (Human))

>  <Ki / µM>
0.34

$$$$

I = CN1C(=N)N[C@](C)(c2cc(NC(=S)C(F)F)cc(F)c2F)CS1(=O)=O
II = COc1ccc(C(=S)Nc2cc(F)c(F)c([C@]3(C)CS(=O)(=O)N(C)C(=N)N3)c2)nc1
In: So which one has the bigger Ki here, I or II ? Response format: the label of the selected entry.
Out: I
(I: 0.095 µM, II: 0.057 µM)

1 = COc1cnc(C(=S)Nc2ccc(F)c([C@]3(C)CS(=O)(=O)N(C)C(=N)N3)c2)cn1
2 = COc1ccc(C(=S)Nc2ccc(F)c([C@]3(C)CS(=O)(=O)N(C)C(=N)N3)c2)nc1
In: So which one has the bigger Ki here, 1 or 2 ? Response format: the label of the selected entry.
Out: 2
(2: 0.057 µM, 1: 0.003 µM)
